All figures here come from paper PMC12036557.

system_name: CYP3A4 (Homo sapiens, UniProt P08684)
Sequence (P08684 whole entry): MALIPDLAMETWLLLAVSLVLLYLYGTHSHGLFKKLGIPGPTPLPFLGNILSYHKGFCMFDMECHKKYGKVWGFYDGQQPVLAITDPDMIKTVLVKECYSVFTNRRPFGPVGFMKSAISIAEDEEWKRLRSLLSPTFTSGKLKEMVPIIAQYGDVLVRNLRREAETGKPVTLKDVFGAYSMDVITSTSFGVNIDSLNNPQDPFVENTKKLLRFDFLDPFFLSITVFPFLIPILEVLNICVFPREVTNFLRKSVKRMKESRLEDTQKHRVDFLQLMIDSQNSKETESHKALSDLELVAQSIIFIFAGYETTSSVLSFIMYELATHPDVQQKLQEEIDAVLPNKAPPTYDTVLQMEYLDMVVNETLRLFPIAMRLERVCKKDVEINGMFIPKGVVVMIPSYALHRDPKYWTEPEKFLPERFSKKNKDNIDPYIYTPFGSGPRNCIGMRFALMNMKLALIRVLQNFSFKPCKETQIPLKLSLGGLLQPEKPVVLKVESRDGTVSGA
test_description: in vitro
cond: pH 7.4
attribute_measured: activity at 30 min, 1 µM (%)
Answer in %, number only, no unit symbol.

Answered cases to consult:
[[record]]
molecule = "COc1cc(C2Oc3cc([C@H]4Oc5cc(O)cc(O)c5C(=O)[C@@H]4O)ccc3OC2CO)ccc1O (stereo partly drawn)"
system_name = "CYP3A4 (Homo sapiens, UniProt P08684)"
measurement = 89

[[record]]
molecule = "COc1ccc(-c2cc(=O)c3c(O)c(OC)c(O)cc3o2)cc1"
system_name = "CYP3A4 (Homo sapiens, UniProt P08684)"
measurement = 98


Supply reported activity at 30 min, 1 µM belonging to this molecule: O=C1c2ccccc2C(=O)c2ccccc21
94.3
